- target_or_test_system: HLA-DRB1*1501 (human)
- assay_overview: competition binding; FIG. 35A
property_measured: pIC50
pIC50 is a log-scale quantity: -log10 of the concentration expressed in molar.

[
  {
    "binder": "ESNIMSTINGYVPES [SEQ ID NO: 5 (ESNIMSTINGYVPES)]",
    "property_measured": "pIC50",
    "experimental_result": 5.37
  },
  {
    "binder": "EKDIHSGLIGPLLI [SEQ ID NO: 6 (EKDIHSGLIGPLLI)]",
    "property_measured": "pIC50",
    "experimental_result": 5.69
  }
]

Below: the item to evaluate.
Query :: Tell me the measured pIC50 of KIVFKNMASRPYSIY [SEQ ID NO: 3 (KIVFKNMASRPYSIY)] , please.
Result :: 5.57

The values you see were collected from patent US20210300985A1.
